test system: SK-OV-3 ovarian; assay: NCI tumour cell line growth inhibition, 48 h
Provide the recorded TGI for the entries that follow.
Output spec: scalar in µM, unitless text.

Req: Item O=C(Nc1ccc([N+](=O)[O-])cc1[N+](=O)[O-])C(=O)C(C(=O)c1ccc(Cl)c(Cl)c1)C1OC(=O)c2ccccc21 (centres undefined) has what recorded TGI?
Resp: 82.5

Req: Item `CC(=O)c1ccc2c3c1[C@H]1O[C@H]1c1cccc(c1-3)[C@@H]1O[C@H]21` has what recorded TGI?
Resp: 16

###

system: SNB-78 CNS; assay: NCI tumour cell line growth inhibition, 48 h
Provide the recorded TGI for the entries that follow.

Req: Item `c1ccc2c(c1)SCCc1cn[nH]c1-2` has what recorded TGI?
Resp: > 100 µM

Req: Item `O=C(O)/C(Cl)=C(Cl)/C=N/NC(=O)c1cc2ccccc2cc1O` has what recorded TGI?
Resp: > 100 µM

Req: Item `Nn1c(-c2cccc(Cl)c2)nc2ccccc2c1=O` has what recorded TGI?
Resp: > 100 µM
